- System: biotinyl-Met-oxazolone
- assay info: self-aminoacylation, catalytic enhancement (BMO) (fold over background); higher = more active; k-Seq, kA / k0A0; sequences stand for … in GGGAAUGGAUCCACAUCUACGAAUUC…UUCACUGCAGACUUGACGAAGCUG
Fewer inactive variants are shown than the library holds.
measurement label: self-aminoacylation

sequence record: CCACACUUCAAGCAAGCGGUA [Fam1B.1 aminoacylation ribozyme variant]
tested target: biotinyl-Met-oxazolone
measurement label: self-aminoacylation
observed result: 1.02
--
sequence record: ACGUUUGCUAAUAGUCUCAAG [Fam3.1 aminoacylation ribozyme variant]
tested target: biotinyl-Met-oxazolone
measurement label: self-aminoacylation
observed result: 0.921
--
sequence record: CCACACCUCAAGGAAUCGGUC [Fam1B.1 aminoacylation ribozyme variant]
tested target: biotinyl-Met-oxazolone
measurement label: self-aminoacylation
observed result: 1.02
--
sequence record: AUUACCAUGGUCAUCAAGUGA [Fam2.1 aminoacylation ribozyme variant]
tested target: biotinyl-Met-oxazolone
measurement label: self-aminoacylation
observed result: 3.69
--
sequence record: AUUACCCUUGUCAUAGAGUGA [Fam2.1 aminoacylation ribozyme variant]
tested target: biotinyl-Met-oxazolone
measurement label: self-aminoacylation
observed result: 8.7
--
sequence record: AUUACCCUGGUCGCCGAGUGA [Fam2.1 aminoacylation ribozyme variant]
tested target: biotinyl-Met-oxazolone
measurement label: self-aminoacylation
observed result: 4.14
--
sequence record: CAUCUUCAAACAAUCGGUCUG [Fam1A.1 aminoacylation ribozyme variant]
tested target: biotinyl-Met-oxazolone
measurement label: self-aminoacylation
observed result: 1.48
--
sequence record: CCAUACUUCAAGCAAUUGGUC [Fam1B.1 aminoacylation ribozyme variant]
tested target: biotinyl-Met-oxazolone
measurement label: self-aminoacylation
observed result: 0.689
